Provide the reported IC50 of each item.
TGT: JAK1 (Homo sapiens, UniProt P23458)
Sequence (P23458 whole entry): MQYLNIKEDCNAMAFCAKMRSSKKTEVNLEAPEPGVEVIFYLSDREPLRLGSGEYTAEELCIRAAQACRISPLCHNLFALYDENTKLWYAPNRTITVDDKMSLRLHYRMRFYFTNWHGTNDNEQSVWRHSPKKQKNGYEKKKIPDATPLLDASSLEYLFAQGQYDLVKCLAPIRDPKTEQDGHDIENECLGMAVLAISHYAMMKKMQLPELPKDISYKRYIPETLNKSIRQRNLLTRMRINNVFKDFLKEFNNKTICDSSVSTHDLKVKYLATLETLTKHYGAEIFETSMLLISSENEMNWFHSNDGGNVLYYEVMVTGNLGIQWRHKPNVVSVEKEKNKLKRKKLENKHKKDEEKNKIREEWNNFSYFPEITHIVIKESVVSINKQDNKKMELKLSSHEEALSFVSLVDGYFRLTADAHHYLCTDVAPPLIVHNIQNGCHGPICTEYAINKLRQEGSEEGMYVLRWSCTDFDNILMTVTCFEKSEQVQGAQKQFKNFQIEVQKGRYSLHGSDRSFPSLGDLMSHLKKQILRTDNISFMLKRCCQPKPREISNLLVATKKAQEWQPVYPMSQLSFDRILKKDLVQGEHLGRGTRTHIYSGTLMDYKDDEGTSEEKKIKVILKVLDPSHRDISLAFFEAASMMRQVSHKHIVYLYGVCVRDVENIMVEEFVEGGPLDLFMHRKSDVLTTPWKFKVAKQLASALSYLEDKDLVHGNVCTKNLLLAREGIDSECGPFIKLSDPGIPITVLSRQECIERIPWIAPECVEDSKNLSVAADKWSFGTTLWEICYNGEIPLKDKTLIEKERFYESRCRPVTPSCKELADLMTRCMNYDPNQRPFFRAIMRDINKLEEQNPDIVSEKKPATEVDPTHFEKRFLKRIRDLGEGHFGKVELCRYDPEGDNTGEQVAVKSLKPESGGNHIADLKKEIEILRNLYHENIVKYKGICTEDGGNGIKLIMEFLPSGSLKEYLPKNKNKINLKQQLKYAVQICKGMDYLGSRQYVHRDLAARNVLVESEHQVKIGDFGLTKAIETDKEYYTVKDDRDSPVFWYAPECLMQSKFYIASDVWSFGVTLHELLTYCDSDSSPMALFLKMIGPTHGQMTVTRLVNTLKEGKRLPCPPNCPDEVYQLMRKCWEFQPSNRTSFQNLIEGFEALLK
ASSAY SUMMARY: JAK1 enzymatic kinase inhibition assay
Type: biochemical
REPORTED CONDITIONS: read-out: Kinase inhibitory activities given in IC50 (nM), JAK1
Enter your answer as a number in nM; do not include the unit.

Incoming: Which IC50 value belongs to N#CCC(=O)N1CCC23CCN(c4ncnc5[nH]ccc45)C2CCC13 (centres unmarked) ?
Outgoing: 1

Incoming: Which IC50 value belongs to C=CC(=O)N1CCC23CCN(c4ncnc5[nH]ccc45)C2CCC13 (centres unmarked) ?
Outgoing: 30
